# system: T1, Kap104p, P38217
# T1 chain: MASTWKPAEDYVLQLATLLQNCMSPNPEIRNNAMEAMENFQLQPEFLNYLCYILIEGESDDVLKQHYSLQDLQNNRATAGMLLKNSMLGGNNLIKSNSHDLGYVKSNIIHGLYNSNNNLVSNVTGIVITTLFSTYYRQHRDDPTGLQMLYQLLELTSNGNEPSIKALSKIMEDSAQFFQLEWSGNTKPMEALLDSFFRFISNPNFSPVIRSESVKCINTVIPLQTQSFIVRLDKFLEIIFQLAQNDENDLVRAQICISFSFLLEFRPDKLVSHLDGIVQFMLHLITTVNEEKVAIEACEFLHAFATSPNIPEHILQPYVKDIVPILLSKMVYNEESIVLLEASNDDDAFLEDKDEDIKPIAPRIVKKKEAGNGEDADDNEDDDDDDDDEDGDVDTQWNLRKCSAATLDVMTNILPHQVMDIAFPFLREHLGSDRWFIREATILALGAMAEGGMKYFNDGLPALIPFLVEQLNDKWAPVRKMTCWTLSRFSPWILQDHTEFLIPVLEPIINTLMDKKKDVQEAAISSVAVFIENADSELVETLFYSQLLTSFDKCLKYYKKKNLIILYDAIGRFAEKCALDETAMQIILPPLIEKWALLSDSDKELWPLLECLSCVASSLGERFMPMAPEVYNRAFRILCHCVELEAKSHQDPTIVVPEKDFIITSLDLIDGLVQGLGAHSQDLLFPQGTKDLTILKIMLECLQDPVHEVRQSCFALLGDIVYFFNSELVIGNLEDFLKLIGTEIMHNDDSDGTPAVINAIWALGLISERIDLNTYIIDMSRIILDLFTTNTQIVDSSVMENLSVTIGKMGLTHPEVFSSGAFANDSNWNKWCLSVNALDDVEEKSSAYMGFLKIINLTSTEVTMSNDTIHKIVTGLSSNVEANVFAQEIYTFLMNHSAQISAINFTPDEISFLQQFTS
# test-method-notes: ITC
# condition-info: chain shown with the change
property: ratio to parent

RDRNDRDRDYNHRSGGNHAAAARGGRGGYNRRNNGYHPYNR (domain or fragment, S. cerevisiae, UniProt Q99383 494-534, looked up, Hrp1p NLS, residues 494-534; source: E. coli BL21(DE3), purified (amylose resin, cation exchange)) [MBP–Hrp1p NLS 512RRNG515/AAAA] | 1.5
RDRNDRDRDYNHAAAANHRRNGRGGRGGYNRRNNGYHPYNR (domain or fragment, S. cerevisiae, UniProt Q99383 494-534, looked up, Hrp1p NLS, residues 494-534; source: E. coli BL21(DE3), purified (amylose resin, cation exchange)) [MBP–Hrp1p NLS 506RSGG509/AAAA] | 1.3
RDRNDRDRDYNHRSGGNHRRNGAAARGGYNRRNNGYHPYNR (domain or fragment, S. cerevisiae, UniProt Q99383 494-534, looked up, Hrp1p NLS, residues 494-534; source: E. coli BL21(DE3), purified (amylose resin, cation exchange)) [MBP–Hrp1p NLS 516RGG518/AAA] | 0.7
RDRNDRDRDYNHRSGGNHRRNGRGGAAAAARRNNGYHPYNR (domain or fragment, S. cerevisiae, UniProt Q99383 494-534, looked up, Hrp1p NLS, residues 494-534; source: E. coli BL21(DE3), purified (amylose resin, cation exchange)) [MBP–Hrp1p NLS 519RGGYN523/AAAAA] | 0.5

Provenance of the data: paper PMC2408616
